- subject-of-test: recombinant human His-ATG7 enzyme (Homo sapiens (Human), UniProt O95352)
- Sequence (O95352 whole entry): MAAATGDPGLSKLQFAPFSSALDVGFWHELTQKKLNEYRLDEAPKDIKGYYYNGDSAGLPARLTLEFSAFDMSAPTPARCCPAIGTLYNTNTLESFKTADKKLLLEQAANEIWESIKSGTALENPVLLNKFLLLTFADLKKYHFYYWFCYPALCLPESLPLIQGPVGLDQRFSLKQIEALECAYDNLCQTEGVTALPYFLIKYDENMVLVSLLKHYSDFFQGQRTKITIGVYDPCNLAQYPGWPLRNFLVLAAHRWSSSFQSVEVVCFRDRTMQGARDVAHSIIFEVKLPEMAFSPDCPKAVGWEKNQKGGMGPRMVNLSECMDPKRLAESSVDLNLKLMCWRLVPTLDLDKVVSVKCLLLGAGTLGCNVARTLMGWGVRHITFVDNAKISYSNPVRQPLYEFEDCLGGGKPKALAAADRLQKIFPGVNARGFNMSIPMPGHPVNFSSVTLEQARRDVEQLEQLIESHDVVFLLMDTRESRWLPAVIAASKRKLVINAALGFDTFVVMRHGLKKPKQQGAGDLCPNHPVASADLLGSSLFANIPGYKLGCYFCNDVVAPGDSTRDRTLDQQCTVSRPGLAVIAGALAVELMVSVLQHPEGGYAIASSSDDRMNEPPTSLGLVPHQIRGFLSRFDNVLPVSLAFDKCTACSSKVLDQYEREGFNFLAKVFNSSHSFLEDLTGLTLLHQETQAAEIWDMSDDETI
- method-description: ATG7 Enzyme Assay (HTRF/FRET, ATG3-GST and Flag-Gabarap)
- Type: biochemical
- condition-notes: Concentration 0.111 μM; read-out: Percent Inhibition
reported-endpoint: inhibition at 0.111 µM (%)
Please respond with the number in % and leave the unit unwritten.

Some solved entries appear below for comparison.
Nc1ncnc2c1c(SCc1ccc(F)cc1)nn2[C@@H]1O[C@H](COS(N)(=O)=O)[C@@H](O)[C@H]1O [Compound I-63]    83
Nc1ncnc2c1c(SCC1CC1(F)F)nn2[C@@H]1O[C@H](COS(N)(=O)=O)[C@@H](O)[C@@H]1F (mixture of isomers) [Compound I-131]    76
Cc1ccc(CSc2nn([C@@H]3O[C@H](COS(N)(=O)=O)[C@@H](O)[C@H]3O)c3ncnc(N)c23)cc1 [Compound I-41]    85

Continue with the molecule presented below.
The molecule listed as COc1cccc(Sc2nn([C@@H]3O[C@H](COS(N)(=O)=O)[C@@H](O)[C@@H]3F)c3ncnc(N)c23)n1 [Compound I-107] shows inhibition at 0.111 µM equal to 61
